Recorded S31N % inhibition (TEVC) by entry
- TARGET_SYSTEM: S31N mutant M2 proton channel (full length AM2 protein) (Influenza A virus, UniProt P0DOF5, S31N)
- Type: biochemical
- RECORDED_CONDITIONS: 100 µM
Numbers only here, please. The scale is %.

Past entries and their recorded results:
CC(N)C12CC3CC(CC(C3)C1)C2 (centres unmarked) [Compound 2, rimantadine]; 13
c1ccc(CNC23CC4CC(CC(C4)C2)C3)nc1 [Compound 33]; 0
COC(=O)[C@H](Cc1cnc[nH]1)NCC12CC3CC(CC(C3)C1)C2 [Compound 3]; 0

Now consider the entry below.
Q: Please look up its S31N % inhibition (TEVC): C[C@@H]1[C@@H](/N=C/c2ccc(O)cc2)C[C@H]2C[C@@H]1C2(C)C [Compound 4]
Ans: 0
